tested on: pancreatic ductal adenocarcinoma (CFPAC-1) cells; test: Antiproliferative MTT assay, CFPAC-1; type: cell-based, human; settings: SI = [IC50 HFF]/[IC50 CFPAC-1]
readout-name: SI (CFPAC-1)
Answer field: number only, no words.

compound="OC(Cn1cc(Cn2ccc3c(Cl)ncnc32)nn1)c1ccc(Cl)cc1 (centres unmarked) [Compound 43b]" assay_target="pancreatic ductal adenocarcinoma (CFPAC-1) cells" reported_value=0.7
compound="OCC(c1ccc(F)cc1)n1cc(Cn2ccc3ccccc32)nn1 (centres unmarked) [Compound 27a]" assay_target="pancreatic ductal adenocarcinoma (CFPAC-1) cells" reported_value=0.6
compound="OC(Cn1cc(Cn2ccc3c(Cl)ncnc32)nn1)c1ccc(F)cc1 (centres unmarked) [Compound 42b]" assay_target="pancreatic ductal adenocarcinoma (CFPAC-1) cells" reported_value=1.5

stdin: Item O[C@@H](Cn1cc(Cn2ccc3c(Cl)ncnc32)nn1)c1ccc(Cl)cc1 [Compound (R)-43b] has what recorded SI (CFPAC-1)?
stdout: 0.6

stdin: Item OCC(c1ccc(Br)cc1)n1cc(Cn2ccc3c(Cl)ncnc32)nn1 (centres unmarked) [Compound 44a] has what recorded SI (CFPAC-1)?
stdout: 1.1

###

system: P-glycoprotein (human MDR1); experiment: MDCKII-MDR1 permeability assay; type: in vitro ADME, canine cells with over-expressed human MDR1 gene; conditions: dog, MDCK-MDR1; 10 µM, 60 min, 37 °C
readout-name: Papp B→A at 60 min, 10 µM

// below: answered compounds
compound="OC(Cn1cc(Cn2ccc3ccccc32)nn1)c1ccc(Br)cc1 (stereo not drawn) [Compound 29b]" readout_name="Papp B→A at 60 min, 10 µM" reported_value="28.6 ×10⁻⁶ cm/s"
compound="OCC(c1ccc(C(F)(F)F)cc1)n1cc(Cn2cnc3c(Cl)ncnc32)nn1 (stereo not drawn) [Compound 40a]" readout_name="Papp B→A at 60 min, 10 µM" reported_value="60.6 ×10⁻⁶ cm/s"
compound="OCC(c1ccc(Br)cc1)n1cc(Cn2cnc3c(Cl)nccc32)nn1 (stereo not drawn) [Compound 49a]" readout_name="Papp B→A at 60 min, 10 µM" reported_value="41.1 ×10⁻⁶ cm/s"
compound="O[C@H](Cn1cc(Cn2cnc3c(Cl)ncnc32)nn1)c1ccc(C(F)(F)F)cc1 [Compound (S)-40b]" readout_name="Papp B→A at 60 min, 10 µM" reported_value="42.9 ×10⁻⁶ cm/s"
compound="OCC(c1ccc(Br)cc1)n1cc(Cn2ccc3ccccc32)nn1 (stereo not drawn) [Compound 29a]" readout_name="Papp B→A at 60 min, 10 µM" reported_value="25.5 ×10⁻⁶ cm/s"

Now for another entry.
stdin: Hi! What's the reported Papp B→A at 60 min, 10 µM for OC(Cn1cc(Cn2ccc3c(Cl)ncnc32)nn1)c1ccc(C(F)(F)F)cc1 (stereo not drawn) [Compound 45b] on P-glycoprotein (human MDR1)?
stdout: 90.7 ×10⁻⁶ cm/s

###

test system: colorectal carcinoma (HT-29) cells; experiment: Antiproliferative MTT assay, HT-29; type: cell-based, human; conditions: Homo sapiens, HT-29, 72 h, 72 h incubation, MTT; mean ± SD
readout-name: pIC50
Scale: negative log10 of molar concentration, which is what pIC50 denotes.

stdin: Item OCC(c1ccc(Cl)cc1)n1cc(Cn2cnc3ccccc32)nn1 (stereo not drawn) [Compound 33a] has what recorded pIC50?
stdout: 4.20
